Tested on: NCI-H322M lung
assayOverview: NCI-60 one-dose screen, 48 h (100 = growth as untreated, 0 = no growth, -100 = all killed)
reportedConditions: 10 µM unless noted
Method: Growth inhibition of the NCI-H322M human Non-Small Cell Lung tumor cell line is measured as a screen for anti-cancer activity. Cells are grown in 96 well plates and exposed to the test compound for 48 hours. Compounds are tested at a single concentration, which is 10^-5 M for most compounds. The reported endpoint is percent growth (GI% or GIPRCNT), where numbers from 0 - 100% represent growth inhibition, and numbers from -100% - 0 represent cell death. […]
This is part of a sample that, as a whole, favours compounds with a hit. Of some 83,000 tested, about 20% had one in any assay.
Listed here: items and their measured growth.

{"compound": "COc1ccc(-n2cc(COc3ccc4c5ccnc(C)c5n(CC(C)C)c4c3)nn2)cc1", "growth / %": 88.7}
{"compound": "COc1ccc(/C(=N\\O)c2cc(C)c(OC)c(C)c2)cc1O", "growth / %": 48.3}
{"compound": "COc1ccc2[nH]c3nc4cnccc4cc3c2c1", "growth / %": 105}
{"compound": "O=c1c2ccccc2oc2ccc(OCCCCCN3CCCCCC3)cc12", "growth / %": 85.9}
{"compound": "CC1CCN(CCCCCOc2ccc3oc4ccccc4c(=O)c3c2)CC1", "growth / %": 78.7}
{"compound": "Cc1ccc(C(=O)O)o1", "growth / %": 105}
{"compound": "O=S(=O)(Nc1nccs1)c1ccc(Nc2nc(-c3ccncc3)cs2)cc1", "growth / %": 126}
{"compound": "COc1ccc(C(=O)c2cc(F)c(F)c(OC)c2F)cc1OC(=O)CCl", "growth / %": 75.8}
{"compound": "COc1cc(NC(=O)Nc2cnc(Nc3ccc(N4CCOCC4)cc3)nc2Oc2ccc(C(F)(F)F)cc2)cc(OC)c1", "growth / %": 106}
{"compound": "C=C1C(=O)O[C@H]2[C@H]1CC/C(COC(=O)CCC(=O)OC/C1=C/CC[C@@]3(C)O[C@H]3[C@H]3OC(=O)C(=C)[C@@H]3CC1)=C\\CC[C@@]1(C)O[C@@H]21", "growth / %": 96.1}
{"compound": "NC(=N\\N=C\\c1ccccc1O)/C(N)=N/N=C/c1ccccc1O", "growth / %": 80.5}
{"compound": "COc1cc(C2=NNC(c3ccc(N(C)C)cc3)C2)cc(OC)c1OC (stereo unspecified)", "growth / %": 46.2}
{"compound": "O=C1C(Cl)=C(NCCCN(CCCNC2=C(Cl)C(=O)c3ccccc3C2=O)C2=C(Cl)C(=O)c3ccccc3C2=O)C(=O)c2ccccc21", "growth / %": 61.5}
{"compound": "COC(=O)c1ccc(NC(=O)CSc2nc(-c3ccc(F)cc3)nc3ccccc23)cc1", "growth / %": 89.5}
{"compound": "Sc1cccc2cccnc12", "growth / %": 36.3}
{"compound": "Cc1ccc(C(=O)/C(=C/c2ccc([N+](=O)[O-])cc2)S(=O)Cc2ccccc2)cc1 (stereo unspecified)", "growth / %": 81.6}
{"compound": "COc1cc(-c2cn(-c3ccc(Cl)c(Cl)c3)c(=O)[nH]2)cc(OC)c1OC", "growth / %": 69.7}
{"compound": "C=C1C(=O)O[C@H]2[C@H]1CCC(/C=N/c1ncc(Br)cc1N)=C\\CC[C@@]1(C)O[C@@H]21", "growth / %": 85.3}
{"compound": "Cc1cc2ccccc2c[n+]1CC(=O)c1ccc(-c2ccccc2)cc1", "growth / %": 78.3}
{"compound": "NCCCn1c2c(c3cc(-c4ccn[nH]4)ccc3c1=O)C(=O)c1ccccc1-2", "growth / %": 67.8}
{"compound": "CCCCn1c(=O)c(/C=C/C(=O)/C=C/c2ccc(OC)cc2)cc2cc(Cl)ccc21", "growth / %": 72.7}
{"compound": "CC(C)(C)c1ccc(O)c(Cc2cc(C(C)(C)C)ccc2O)c1", "growth / %": 102}
{"compound": "COc1cc([C@H](C)c2ccc3ccccc3c2)cc(OC)c1OC", "growth / %": 55.9}
{"compound": "O=C1NN(c2ccccc2)C(c2ccc(Cl)cc2)N2CCC[C@H]12 (stereo partly specified)", "growth / %": 94.1}
{"compound": "COc1ccc2c(c1)Oc1nc(N)c(C#N)c(N)c1C2Sc1ccc(O)cc1 (stereo unspecified)", "growth / %": 100}
{"compound": "COc1ccc2c(c1)C1(C(=O)N2)C(C#N)=C(c2ccccc2)Nc2c1c(-c1ccccc1)nn2-c1ccccc1 (stereo unspecified)", "growth / %": 60.4}
{"compound": "CCCn1c(N)c(C(N)=O)sc1=S", "growth / %": 101}
{"compound": "COc1ccc(-c2[nH]c3ccccc3c2C=C(C#N)C#N)cc1", "growth / %": 52.1}
{"compound": "O=C(C[n+]1cccc2cc(Cl)ccc21)c1ccc2c(c1)CCCC2", "growth / %": 61.6}
{"compound": "CCCCC(=O)Nc1c(C(=O)Nc2ccccc2)sc2nc3c(cc12)C(OC(=O)CCCC)CCC3 (stereo unspecified)", "growth / %": 113}
{"compound": "C[C@H](Oc1cc(-c2cnn(C3CCNCC3)c2)cnc1N)c1c(Cl)ccc(F)c1Cl", "growth / %": 75.2}
